Exercise: for every item that follows, state its recorded EC50.
# measurement.target: Nuclear factor erythroid 2-related factor 2 (Homo sapiens)
# Sequence (Q16236 whole entry): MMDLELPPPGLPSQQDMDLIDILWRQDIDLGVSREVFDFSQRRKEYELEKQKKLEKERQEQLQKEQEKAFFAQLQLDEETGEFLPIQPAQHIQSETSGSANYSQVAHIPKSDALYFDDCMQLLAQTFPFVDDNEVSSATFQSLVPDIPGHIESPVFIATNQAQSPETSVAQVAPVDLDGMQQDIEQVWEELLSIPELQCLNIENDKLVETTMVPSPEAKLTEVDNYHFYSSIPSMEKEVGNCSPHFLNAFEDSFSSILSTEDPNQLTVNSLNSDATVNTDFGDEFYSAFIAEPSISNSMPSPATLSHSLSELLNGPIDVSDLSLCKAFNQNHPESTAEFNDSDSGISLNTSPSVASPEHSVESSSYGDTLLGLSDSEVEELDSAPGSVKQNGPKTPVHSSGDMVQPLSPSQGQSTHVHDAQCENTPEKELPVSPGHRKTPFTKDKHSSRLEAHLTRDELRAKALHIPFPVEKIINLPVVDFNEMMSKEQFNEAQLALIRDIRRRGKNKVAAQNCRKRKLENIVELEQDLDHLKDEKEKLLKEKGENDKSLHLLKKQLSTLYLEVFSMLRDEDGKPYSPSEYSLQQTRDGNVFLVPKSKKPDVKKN
# assay.comment: Activation of Nrf2 in human PathHunter U2OS Keap1-Nrf2 cells assessed as Nrf2 nuclear translocation by chemiluminescent assay
Where a name gives a salt, the structure may show the parent alone.
Expressed in µM, but write only the number.

q: Quick one: EC50 for COC(=O)/C=C/n1nn[nH]c1=O ?
a: 60.9

q: Quick one: EC50 for COC(=O)/C=C/C(=O)O [MONOMETHYL FUMARATE] ?
a: 127

q: Quick one: EC50 for COC(=O)/C=C/C(=O)OC [DIMETHYL FUMARATE] ?
a: 7.93

q: Quick one: EC50 for COC(=O)/C=C/n1cnn(C)c1=O ?
a: 95.2
